Study the reported IC50 values for Apoptosis regulator Bcl-2 (Homo sapiens) given below; they originate from different publications.

CCCCN(CCCC)C(=O)c1cc(C)n(-c2ccc(NC(=O)C(C)CC(=O)O)cc2C(=O)N2Cc3ccccc3C[C@H]2CO)n1 (stereo partly drawn)	0.127 to 0.129 µM
CCCCN(CCCC)C(=O)c1cc(C)n(-c2ccc(NC(=O)c3cccc(Cl)c3O)cc2C(=O)N2Cc3ccccc3C[C@H]2CO)n1	0.0653 to 0.0697 µM
O=C(c1cc(S(=O)(=O)N2CCc3ccccc3C2)c(O)c(O)c1O)N1CCc2ccc(S(=O)(=O)NCCc3cccc(Cl)c3)cc2C1	≤ 1 µM

Param item = CCCCN(CCCC)C(=O)c1cc(C)n(-c2ccc(NC(=O)c3c(C)n(C)n(-c4ccccc4)c3=O)cc2C(=O)N2Cc3ccccc3C[C@H]2CO)n1 ; retrieve measured IC50.
0.0587 to 0.0829 µM

Param item = O=C(NCc1ccccc1)c1cc(S(=O)(=O)N2CCc3ccc(S(=O)(=O)N4CCCCC4)cc3C2)c(O)c(O)c1O ; retrieve measured IC50.
≤ 1 µM

Param item = CCCCN(CCCC)C(=O)c1cc(C)n(-c2ccc(NC(=O)CCC(=O)O)cc2C(=O)N2Cc3ccccc3C[C@H]2CO)n1 ; retrieve measured IC50.
0.216 to 0.25 µM

Param item = CN(C)CC[C@H](CSc1ccccc1)Nc1ccc(S(=O)(=O)Nc2ncnc3c2CCN(C2CCN(Cc4ccccc4-c4ccc(Br)cc4)CC2)C3)cc1S(=O)(=O)C(F)(F)F ; retrieve measured IC50.
0.019 µM

Param item = CCCCN(CCCC)C(=O)c1cc(C)n(-c2ccc(NC(=O)COc3ccccc3)cc2C(=O)N2Cc3ccccc3C[C@H]2CO)n1 ; retrieve measured IC50.
0.0838 to 0.109 µM

Param item = O=C(Nc1ccc(Oc2ccccc2)cc1)c1cc(CCc2ccccc2)c(O)c(O)c1O ; retrieve measured IC50.
> 1 µM

Param item = CCCCc1c(-c2ccc(C(=O)NS(=O)(=O)c3ccc4cccc(Cl)c4c3)cc2C(=O)N2CCc3ccccc3C2)c(CO)nn1-c1ccc(Oc2cccc(Cl)c2)cc1 ; retrieve measured IC50.
0.00637 µM

Param item = CCCN(CCC)c1nn(-c2ccc(C(=O)NS(=O)(=O)c3ccc4cccc(Cl)c4c3)cc2C(=O)N2CCc3ccccc3C2)c(C(F)(F)F)c1Cl ; retrieve measured IC50.
0.04 µM

Param item = COc1ccc(-c2ccc(Cl)cc2)c(CN2CCC(N3CCc4c(ncnc4NS(=O)(=O)c4ccc(N[C@H](CCN(C)C)CSc5ccccc5)c(S(=O)(=O)C(F)(F)F)c4)C3)CC2)c1 ; retrieve measured IC50.
0.034 µM
